- TARGET OR SYSTEM: DNA repair protein RAD51 homolog 1 (Homo sapiens) (UniProt Q06609)
- Sequence (Q06609 whole entry, the tested form may be a part): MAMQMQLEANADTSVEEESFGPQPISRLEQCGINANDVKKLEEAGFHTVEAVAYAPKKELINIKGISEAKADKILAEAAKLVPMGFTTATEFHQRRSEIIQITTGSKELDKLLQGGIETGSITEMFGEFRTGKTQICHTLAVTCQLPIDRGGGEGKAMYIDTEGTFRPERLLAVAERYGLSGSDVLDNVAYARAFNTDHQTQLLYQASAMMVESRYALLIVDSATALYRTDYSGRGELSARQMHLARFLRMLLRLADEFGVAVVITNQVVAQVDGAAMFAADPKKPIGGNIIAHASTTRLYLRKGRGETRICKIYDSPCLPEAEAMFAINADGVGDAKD
- EXPERIMENT: Binding affinity to RAD51 (158 to 180 residues) (unknown origin) assessed as alpha-helical content at 15 uM by circular dichroism spectroscopy (reference value: 26.9%)
Where a SMILES comes first, the peptide text is derived from it. The star is where a group is joined. Nicotinoyl(6-CF3) = O=C(c1ccc(C(F)(F)F)nc1)*; X1 = O=C(c1cncc(C(F)(F)F)c1)*; X5 = O=C(c1ccc[n+]([O-])c1)*; Nicotinoyl = O=C(c1cccnc1)*; X2 = O=C(c1cccnc1C(F)(F)F)*; X3 = O=C(c1cccnc1Br)*; X4 = Cc1ccncc1C(=O)*
Known Activity of a selection of compounds

>  <COMPOUND>
CC(C)C[C@H](NC(=O)[C@H](Cc1ccc(O)cc1)NC(=O)c1cccnc1C(F)(F)F)C(=O)N[C@@H](CCC(N)=O)C(=O)N[C@@H](CC(N)=O)C(=O)N[C@H](C(=O)N[C@@H](Cc1ccccc1)C(=O)N[C@@H](CCCCN)C(=O)N[C@H](C(=O)N[C@@H](CO)C(=O)N[C@@H](CCCCN)C(=O)N[C@@H](CCCNC(=N)N)C(=O)N[C@@H](CCC(N)=O)C(=O)N[C@@H](CO)C(=O)N[C@@H](Cc1ccccc1)C(=O)N[C@@H](C)C(=O)N1CCC[C@H]1C(N)=O)C(C)C)[C@@H](C)O (X2-YLQNTFKVSKRQSFAP-NH2)

>  <Activity>
51.3%

$$$$
>  <COMPOUND>
CC(C)C[C@H](NC(=O)[C@H](Cc1ccc(O)cc1)NC(=O)c1ccc(C(F)(F)F)nc1)C(=O)N[C@@H](CCC(N)=O)C(=O)N[C@@H](CC(N)=O)C(=O)N[C@H](C(=O)N[C@@H](Cc1ccccc1)C(=O)N[C@@H](CCCCN)C(=O)N[C@H](C(=O)N[C@@H](CO)C(=O)N[C@@H](CCCCN)C(=O)N[C@@H](CCCNC(=N)N)C(=O)N[C@@H](CCC(N)=O)C(=O)N[C@@H](CO)C(=O)N[C@@H](Cc1ccccc1)C(=O)N[C@@H](C)C(=O)N1CCC[C@H]1C(N)=O)C(C)C)[C@@H](C)O ({Nicotinoyl(6-CF3)}-YLQNTFKVSKRQSFAP-NH2)

>  <Activity>
48.3%

$$$$
>  <COMPOUND>
CC(C)C[C@H](NC(=O)[C@H](Cc1ccc(O)cc1)NC(=O)c1ccc[n+]([O-])c1)C(=O)N[C@@H](CCC(N)=O)C(=O)N[C@@H](CC(N)=O)C(=O)N[C@H](C(=O)N[C@@H](Cc1ccccc1)C(=O)N[C@@H](CCCCN)C(=O)N[C@H](C(=O)N[C@@H](CO)C(=O)N[C@@H](CCCCN)C(=O)N[C@@H](CCCNC(=N)N)C(=O)N[C@@H](CCC(N)=O)C(=O)N[C@@H](CO)C(=O)N[C@@H](Cc1ccccc1)C(=O)N[C@@H](C)C(=O)N1CCC[C@H]1C(N)=O)C(C)C)[C@@H](C)O (X5-YLQNTFKVSKRQSFAP-NH2)

>  <Activity>
40.6%

$$$$
>  <COMPOUND>
Cc1ccncc1C(=O)N[C@@H](Cc1ccc(O)cc1)C(=O)N[C@@H](CC(C)C)C(=O)N[C@@H](CCC(N)=O)C(=O)N[C@@H](CC(N)=O)C(=O)N[C@H](C(=O)N[C@@H](Cc1ccccc1)C(=O)N[C@@H](CCCCN)C(=O)N[C@H](C(=O)N[C@@H](CO)C(=O)N[C@@H](CCCCN)C(=O)N[C@@H](CCCNC(=N)N)C(=O)N[C@@H](CCC(N)=O)C(=O)N[C@@H](CO)C(=O)N[C@@H](Cc1ccccc1)C(=O)N[C@@H](C)C(=O)N1CCC[C@H]1C(N)=O)C(C)C)[C@@H](C)O (X4-YLQNTFKVSKRQSFAP-NH2)

>  <Activity>
37.9%

$$$$
>  <COMPOUND>
CC(C)C[C@H](NC(=O)[C@H](Cc1ccc(O)cc1)NC(=O)c1cccnc1)C(=O)N[C@@H](CCC(N)=O)C(=O)N[C@@H](CC(N)=O)C(=O)N[C@H](C(=O)N[C@@H](Cc1ccccc1)C(=O)N[C@@H](CCCCN)C(=O)N[C@H](C(=O)N[C@@H](CO)C(=O)N[C@@H](CCCCN)C(=O)N[C@@H](CCCNC(=N)N)C(=O)N[C@@H](CCC(N)=O)C(=O)N[C@@H](CO)C(=O)N[C@@H](Cc1ccccc1)C(=O)N[C@@H](C)C(=O)N1CCC[C@H]1C(N)=O)C(C)C)[C@@H](C)O (Nicotinoyl-YLQNTFKVSKRQSFAP-NH2)

>  <Activity>
43.4%

$$$$
>  <COMPOUND>
CC(C)C[C@H](NC(=O)[C@H](Cc1ccc(O)cc1)NC(=O)c1cccnc1Br)C(=O)N[C@@H](CCC(N)=O)C(=O)N[C@@H](CC(N)=O)C(=O)N[C@H](C(=O)N[C@@H](Cc1ccccc1)C(=O)N[C@@H](CCCCN)C(=O)N[C@H](C(=O)N[C@@H](CO)C(=O)N[C@@H](CCCCN)C(=O)N[C@@H](CCCNC(=N)N)C(=O)N[C@@H](CCC(N)=O)C(=O)N[C@@H](CO)C(=O)N[C@@H](Cc1ccccc1)C(=O)N[C@@H](C)C(=O)N1CCC[C@H]1C(N)=O)C(C)C)[C@@H](C)O (X3-YLQNTFKVSKRQSFAP-NH2)

>  <Activity>
37.7%

$$$$
>  <COMPOUND>
CC(C)C[C@H](NC(=O)[C@H](Cc1ccc(O)cc1)NC(=O)c1cncc(C(F)(F)F)c1)C(=O)N[C@@H](CCC(N)=O)C(=O)N[C@@H](CC(N)=O)C(=O)N[C@H](C(=O)N[C@@H](Cc1ccccc1)C(=O)N[C@@H](CCCCN)C(=O)N[C@H](C(=O)N[C@@H](CO)C(=O)N[C@@H](CCCCN)C(=O)N[C@@H](CCCNC(=N)N)C(=O)N[C@@H](CCC(N)=O)C(=O)N[C@@H](CO)C(=O)N[C@@H](Cc1ccccc1)C(=O)N[C@@H](C)C(=O)N1CCC[C@H]1C(N)=O)C(C)C)[C@@H](C)O (X1-YLQNTFKVSKRQSFAP-NH2)

>  <Activity>
46.7%

$$$$
